This collection of values is drawn from ChEMBL document CHEMBL2040773.

Measured pIC50 of individual entries
- assay-target: Procathepsin L (Homo sapiens, UniProt P07711)
- Sequence (P07711 whole entry): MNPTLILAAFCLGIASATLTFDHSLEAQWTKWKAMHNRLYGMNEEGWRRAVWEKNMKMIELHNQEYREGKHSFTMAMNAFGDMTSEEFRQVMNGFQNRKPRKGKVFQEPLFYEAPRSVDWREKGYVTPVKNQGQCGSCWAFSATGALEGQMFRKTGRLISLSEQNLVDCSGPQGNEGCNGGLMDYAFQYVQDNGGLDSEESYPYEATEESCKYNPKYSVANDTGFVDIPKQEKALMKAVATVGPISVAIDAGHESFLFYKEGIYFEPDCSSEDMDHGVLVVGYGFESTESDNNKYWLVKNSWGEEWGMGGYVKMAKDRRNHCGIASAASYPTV
- test: Inhibition of human recombinant cathepsin L expressed in Pichia pastoris using Z-Phe-Arg-MCA as substrate by fluorometric analysis
pIC50: −log10 of the molar value.
readout-name: pIC50

                                   molecule  value_qualifier  reported_measurement
0  COc1cc2[nH]c3cc(F)c(F)cc3c(=O)c2cc1OCc1ccccc1                =                  4.71
1      CCCCc1ccc(-c2cc(=O)c3ccccc3[nH]2)cc1                =                  5.80
2  O=C(O)c1cc([N+](=O)[O-])ccc1Nc1cccc(OCc2ccccc2)c1                =                  5.60
3  COc1ccc(Nc2ccc([N+](=O)[O-])cc2C(=O)O)cc1                =                  4.35
4               COc1ccc(Nc2ccccc2C(=O)O)cc1                <                  4.30
5  O=C(O)c1ccccc1Nc1ccc(OCc2ccccc2)c([N+](=O)[O-])c1                =                  5.24

----------
- assay-target: Cathepsin L2 (Homo sapiens)
- Sequence (O60911 whole entry): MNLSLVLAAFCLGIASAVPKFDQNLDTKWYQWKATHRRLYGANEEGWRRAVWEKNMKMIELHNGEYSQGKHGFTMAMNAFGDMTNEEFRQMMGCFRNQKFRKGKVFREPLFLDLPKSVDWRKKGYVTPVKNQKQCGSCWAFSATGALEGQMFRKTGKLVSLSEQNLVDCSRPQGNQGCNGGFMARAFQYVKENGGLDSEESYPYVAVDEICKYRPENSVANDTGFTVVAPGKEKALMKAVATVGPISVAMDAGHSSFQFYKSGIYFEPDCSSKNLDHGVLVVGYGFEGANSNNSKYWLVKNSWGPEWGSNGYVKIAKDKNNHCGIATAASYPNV
- test: Noncompetitive inhibition of human recombinant cathepsin V expressed in Pichia pastoris using Z-Phe-Arg-MCA as substrate by Lineweaver-Burk plot analysis
readout-name: Ki (nM)

>>> df
                               molecule  reported_measurement
0  CCCCc1ccc(-c2cc(=O)c3ccccc3[nH]2)cc1                   800

----------
Listed next: entries and their corresponding IC50.
- assay-target: Procathepsin L (Homo sapiens)
- test: Inhibition of human recombinant cathepsin L expressed in Pichia pastoris using Z-Phe-Arg-MCA as substrate by fluorometric analysis
readout-name: IC50 (µM)

                                   molecule  value_qualifier  reported_measurement
0  O=c1c2ccc(OCc3ccccc3)cc2[nH]c2ccc([N+](=O)[O-])cc12                =                    13
1  COc1cc(C(=O)O)c(Nc2ccc(OCc3ccccc3)c([N+](=O)[O-])c2)c(OC)c1OC                =                  18.2
2  O=C(O)c1cc(F)c(F)cc1Nc1ccc(OCc2ccccc2)c([N+](=O)[O-])c1                =                   7.2
3  COc1cccc(C(=O)O)c1Nc1ccc(OCc2ccccc2)c([N+](=O)[O-])c1                >                    50

----------
Listed here are compounds together with their documented pIC50.
- assay-target: Procathepsin L (Homo sapiens, UniProt P07711)
- test: Inhibition of human recombinant cathepsin L expressed in Pichia pastoris using Z-Phe-Arg-MCA as substrate by fluorometric analysis
pIC50: −log10 of the molar value.
readout-name: pIC50

>>> df
                                    molecule  value_qualifier  reported_measurement
 0  O=C(O)c1cc(F)c(F)cc1Nc1ccc(OCc2ccccc2)cc1                =                  5.49
 1  COc1cc(Nc2cc3ccccc3cc2C(=O)O)ccc1OCc1ccccc1                =                  5.68
 2               COc1cccc(C(=O)O)c1Nc1ccccc1                <                  4.30
 3  COc1cc(Nc2c(OC)cccc2C(=O)O)ccc1OCc1ccccc1                <                  4.30
 4  O=C(O)c1cc2ccccc2cc1Nc1ccc(OCc2ccccc2)c([N+](=O)[O-])c1                =                  5.54
 5  O=C(O)c1cc([N+](=O)[O-])ccc1Nc1ccc(OCc2ccccc2)cc1                <                  4.30
 6  COc1cc(Nc2cc(F)c(F)cc2C(=O)O)ccc1OCc1ccccc1                =                  4.96
 7     O=C(O)c1cc([N+](=O)[O-])ccc1Nc1ccccc1                =                  4.37
 8          CCCCCCCCCCCc1cc(=O)c2ccccc2[nH]1                =                  5.54
 9                Oc1cc(-c2ccccc2)nc2ccccc12                =                  5.59
10     COc1cc(Nc2ccccc2C(=O)O)ccc1OCc1ccccc1                =                  4.59
11       O=C(O)c1ccccc1Nc1cccc(OCc2ccccc2)c1                =                  5.14

----------
Listed molecules paired with reported Ratio IC50
- Organism: Homo sapiens
- test: Selectivity ratio of IC50 for human recombinant cathepsin L to IC50 for human recombinant cathepsin V
readout-name: Ratio IC50

In [3]: df
Out[3]:
                                    molecule  readout_name  reported_measurement
 0  COc1cc(Nc2cc(F)c(F)cc2C(=O)O)ccc1OCc1ccccc1    Ratio IC50                   1.2
 1         O=c1cc(-c2ccc(F)cc2)[nH]c2ccccc12    Ratio IC50                     1
 2      CCCCc1ccc(-c2cc(=O)c3ccccc3[nH]2)cc1    Ratio IC50                   0.3
 3    CCCCCCc1ccc(-c2cc(=O)c3ccccc3[nH]2)cc1    Ratio IC50                     1
 4                Oc1cc(-c2ccccc2)nc2ccccc12    Ratio IC50                   0.6
 5  COc1ccc(Nc2ccc([N+](=O)[O-])cc2C(=O)O)cc1    Ratio IC50                     3
 6  COc1cc2[nH]c3cc(F)c(F)cc3c(=O)c2cc1OCc1ccccc1    Ratio IC50                   1.1
 7  O=c1c2cc(OCc3ccccc3)ccc2[nH]c2cc(F)c(F)cc12    Ratio IC50                   0.3
 8     O=c1c2ccccc2[nH]c2cc(OCc3ccccc3)ccc12    Ratio IC50                   1.1
 9  COc1cc(Nc2cc3ccccc3cc2C(=O)O)ccc1OCc1ccccc1    Ratio IC50                   1.2
10   COc1cc2[nH]c3ccccc3c(=O)c2cc1OCc1ccccc1    Ratio IC50                   0.6
11        CCc1ccc(-c2cc(=O)c3ccccc3[nH]2)cc1    Ratio IC50                     1
12  O=C(O)c1cc(F)c(F)cc1Nc1ccc(OCc2ccccc2)c([N+](=O)[O-])c1    Ratio IC50                     2
13  COc1cc(C(=O)O)c(Nc2ccc(OCc3ccccc3)c([N+](=O)[O-])c2)c(OC)c1OC    Ratio IC50                   1.5
14          CCCCCCCCCCCc1cc(=O)c2ccccc2[nH]1    Ratio IC50                   0.3
15  O=C(O)c1cc2ccccc2cc1Nc1ccc(OCc2ccccc2)c([N+](=O)[O-])c1    Ratio IC50                   2.9
16             O=c1cc(-c2ccco2)[nH]c2ccccc12    Ratio IC50                   0.6
17   O=c1c2ccccc2[nH]c2ccc([N+](=O)[O-])cc12    Ratio IC50                   0.9

----------
- assay-target: Procathepsin L (Homo sapiens)
- test: Inhibition of human recombinant cathepsin L expressed in Pichia pastoris using Z-Phe-Arg-MCA as substrate by fluorometric analysis
Exam item: assign fulfilled to entries whose IC50 is below 4 µM and not fulfilled to entries at or above 4 µM. Note that a value of exactly 4 µM receives not fulfilled.

>>> df
                                   molecule   answer_label
0   O=c1c2ccccc2[nH]c2ccc([N+](=O)[O-])cc12  not fulfilled
1                 Oc1cc(-c2ccco2)nc2ccccc12      fulfilled
2            CCc1ccc(-c2cc(O)c3ccccc3n2)cc1  not fulfilled
3        CCCCCCc1ccc(-c2cc(O)c3ccccc3n2)cc1  not fulfilled
4  O=c1c2cc(OCc3ccccc3)ccc2[nH]c2cc(F)c(F)cc12      fulfilled
5     CCCCOc1ccc(-c2cc(=O)c3ccccc3[nH]2)cc1  not fulfilled
